MEASUREMENT PROTOCOL: Pharmacokinetics in plasma after i.v. administration (boron by ICP-OES)
Assay type: in vivo
STUDY CONDITIONS: mouse, iv, ICR mice, i.v. 1.0 mg/kg, two-compartment model, mean ± SD (n = 3)
ENDPOINT LABEL: AUC (ng·h/mL)
# unit: ng·h/mL | format: bare number

Which AUC value belongs to CC(C)C[C@H](NC(=O)[C@H](Cc1ccccc1)NC(=O)c1cnccn1)B(O)O [Free BTZ, Bortezomib] ?
2870

----------
MEASUREMENT PROTOCOL: Pharmacokinetics in plasma after i.v. administration (boron by ICP-OES)
Type: in vivo
STUDY CONDITIONS: mouse, iv, ICR mice, i.v. 1.0 mg/kg, two-compartment model, mean ± SD (n = 3)
ENDPOINT LABEL: clearance (mL/min/kg)
# unit: mL/min/kg | format: bare number

Which clearance value belongs to CC(C)C[C@H](NC(=O)[C@H](Cc1ccccc1)NC(=O)c1cnccn1)B(O)O [Free BTZ, Bortezomib] ?
5.8
